- MEASURED_ON: T1, AXLECDHis (extracellular domain of human AXL) (Homo sapiens, UniProt P30530)
- T1 construct: the extracellular domain (ECD) of human AXL (aa 1-447) with a C-terminal His tag (AXLECDHis); His tag (C); made in house; host or cells: HEK-293F
- ASSAY_COMMENT: Binding affinity by Bio-Layer Interferometry (Octet)
- CONDITION_DESCRIPTION: soluble AXLECDHis, 30° C, 1:1 model
Marks after values point to notes of the source that are not given here.
METRIC_NAME: Kon

{"MOLECULE": "IgG1-AXL-148: human IgG1,κ anti-AXL antibody, VH SEQ ID NO:5, VL SEQ ID NO:6; Ig2 domain binding (antibody, V domains shown, homo sapiens) VH: EVQLLESGGGLVQPGGSLRLSCAASGFTFSSYAMTWVRQAPGKGLEWVSAISISGGSTFYADSVKGRFTISRDNSKNTLYLQMNSLRAEDTAVYYCRGYSGYVYDAFDFWGQGTMVTVSS VL: DIQMTQSPSSLSASVGDRVTITCRASQGISNWLAWYQQKPEKAPKSLIYAASSLQSGVPSRFSGSGSGTDFTLTISSLQPEDFATYYCQQYNSYPLTFGGGTKVEIK", "METRIC_NAME": "Kon", "ENDPOINT_VALUE": "230000 M⁻¹ s⁻¹"}
